Would you kindly list MST for each of these compounds?
System: vincristine resistant murine leukemia P388/VCR
Assay: In vivo evaluation of MDR-1 reversal agents against vincristine resistant murine leukemia P388/VCR implanted IP in CDF1 mice
Conditions: vincristine 0.2 + compound 25 mg/kg, days 1-7, IP
Answer format: numeric, days implied, no suffix.

In: Indicate its recorded MST; the compound in question is COc1ccc(C(C#N)(CCCCCN2CCc3cc4c(cc3C2)OCO4)Sc2ccc(C)cc2)cc1OC (centres unmarked) [Example 21]
Out: 14.5

In: Indicate its recorded MST; the compound in question is COc1ccc(C(C#N)(CCCCCN2Cc3cc(OC)c(OC)cc3C2)Sc2ccc(C)cc2)cc1OC (centres unmarked) [Example 26]
Out: 15.8

In: Indicate its recorded MST; the compound in question is COC(=O)C(CCCN1CCc2cc(OC)c(OC)cc2C1)(Sc1ccc(C)cc1)c1ccc(OC)c(OC)c1 (centres unmarked) [Example 12]
Out: 16.5

In: Indicate its recorded MST; the compound in question is COc1ccc(C(C#N)(CCCCCN2CCc3cc(OC)c(OCCn4ccnc4)cc3C2)Sc2ccc(C)cc2)cc1OC (centres unmarked) [Example 33]
Out: 15.6

In: Indicate its recorded MST; the compound in question is COc1ccc(C(C#N)(CCCCCCN2CCc3cc(OC)c(OC)cc3C2)Sc2ccc(C)cc2)cc1OC (centres unmarked) [Example 37]
Out: 14.7

In: Indicate its recorded MST; the compound in question is COc1ccc(C(C#N)(CCCCCN2CCc3ccccc3C2)Sc2ccc(C)cc2)cc1OC (centres unmarked) [Example 16]
Out: 16.8

In: Indicate its recorded MST; the compound in question is COc1ccc2c(c1)CCN(CCCCCC(Sc1ccc(C)cc1)c1ccc(OC)c(OC)c1)C2 (centres unmarked) [Example 46]
Out: 16.7

In: Indicate its recorded MST; the compound in question is COc1cc2c(cc1OC)CN(CCCCCCC(Sc1ccccc1)c1ccccc1)CC2 (centres unmarked) [Example 112]
Out: 16.3

---

Would you kindly list Relative Tumor Growth Day 21 for each of these compounds?
System: human epidermoid carcinoma KB/8.5
Test: In vivo evaluation of MDR-1 reversal agents against human epidermoid carcinoma KB/8.5 implanted SC in athymic nude mice
Parameters: species or system human (tumor in athymic nude mice)
Settings: doxorubicin 8 mg/kg IV + compound […] SC at -2 h and +2 h
Write the value as a bare number.

In: Indicate its recorded Relative Tumor Growth Day 21; the compound in question is COc1ccc(C(C#N)(CCCCCN2Cc3cc(OC)c(OC)cc3C2)Sc2ccc(C)cc2)cc1OC.Cl (stereo not drawn) [Example 27]
Out: 9.66

In: Indicate its recorded Relative Tumor Growth Day 21; the compound in question is COc1ccc(C(CCCCCCN2Cc3cc(OC)c(OC)cc3C2)Sc2ccc(C)cc2)cc1OC (stereo not drawn) [Example 49]
Out: 6.41

In: Indicate its recorded Relative Tumor Growth Day 21; the compound in question is COc1ccc(C(CCCCCN2CCc3cc(OC)c(OC)cc3C2)Sc2ccc(C)cc2)cc1OC (stereo not drawn) [Example 41]
Out: 7.27

---

Would you kindly list Relative Tumor Growth Day 21 for each of these compounds?
System: human epidermoid carcinoma KB/8.5
Experiment: In vivo evaluation of MDR-1 reversal agents against human epidermoid carcinoma KB/8.5 implanted SC in athymic nude mice
Design: species or system human (tumor in athymic nude mice)
Conditions: doxorubicin 8 mg/kg IV + compound […] SC at -2 h and +2 h
Write the value as a bare number.

In: Indicate its recorded Relative Tumor Growth Day 21; the compound in question is COc1ccc(C(CCCCCCN2CCc3cc(OC)c(OC)cc3C2)Sc2ccc(C)cc2)cc1OC (stereo not shown)
Out: 10.30

In: Indicate its recorded Relative Tumor Growth Day 21; the compound in question is COc1ccc(C(CCCCCN2CCc3cc4c(cc3C2)OCO4)Sc2ccc(C)cc2)cc1OC (stereo not shown)
Out: 17.53

In: Indicate its recorded Relative Tumor Growth Day 21; the compound in question is COc1cc2c(cc1OC)CN(CCCCCC(Sc1ccc(C)cc1)c1ccc3c(c1)OCO3)CC2 (stereo not shown)
Out: 10.70

In: Indicate its recorded Relative Tumor Growth Day 21; the compound in question is COc1ccc(C(C#N)(CCCCCN2CCc3cc(OC)c(OC)cc3C2)SC2CCCCC2)cc1OC (stereo not shown)
Out: 10.17
